System: SF-539 CNS
PROTOCOL: NCI tumour cell line growth inhibition, 48 h
Reported TGI is given for each of the following compounds.
QUANTITY KIND: TGI

Cc1cc(=O)oc2cc(OS(C)(=O)=O)ccc12
> 100 µM
CC(C)OC(=O)[C@@H](O)[C@H](CO)C1=CC([Si](C)(C)c2ccccc2)=CON1
> 100 µM
O=C(OCCC12CC3CC(CC(C3)C1)C2)c1ccc(NCc2cc(O)ccc2O)cc1
2.08 µM
C(=C\c1cc(-c2ccc3ccccc3n2)nc2ccc3ccccc3c12)/c1ccc2ccccc2n1
> 100 µM
N#C/C(=C\c1ccc(C(O)P(=O)(O)O)cc1)C(N)=O (stereo unspecified)
> 100 µM
O=[N+]([O-])c1ccc(Cl)cc1N/N=C/c1cccc2cccnc12
> 100 µM
C=C(C(=O)OC)c1cc2ccccc2n1S(=O)(=O)c1ccccc1
3.66 µM
C/C(=N\N=C(N)N)C(CN(C)C)C(c1ccccc1)c1c(O)c2ccccc2oc1=O (stereo unspecified)
> 100 µM
CC(C)c1ccc(NC(=S)NC(=O)c2ccccc2)cc1
> 100 µM
c1ccc2c(c1)CC1COc3ccccc3C1O2 (stereo unspecified)
> 100 µM
COc1cc(C2c3cc4c(cc3[C@@H](Nc3cccc([N+](=O)[O-])c3)C3COC(=O)[C@H]23)OCO4)cc(OC)c1O (stereo partly specified)
4.02 µM
S=C(Nc1ccccn1)Nc1ccccc1Cl
> 100 µM
O=C(OCc1ccccc1)N1CCN(C(=O)OCc2ccccc2)CCN(C(=O)OCc2ccccc2)CCN(C(=O)OCc2ccccc2)CCN(C(=O)OCc2ccccc2)CC1
> 100 µM
CC1(C)CC(Nc2ccc(Nc3ccccc3)cc2)CC(C)(C)N1
41.9 µM
C=CCn1cc(C(=O)NC(=O)NCCCCCOC(=O)CCCCCCCCCCC(=O)OCCCCCNC(=O)NC(=O)c2cn(CC=C)c(=O)n(C)c2=O)c(=O)n(C)c1=O
> 100 µM
CC[C@@]12C=CC(=S)N(CCSc3ccccc3)[C@@H]1c1c(n(S(=O)(=O)c3ccc(OC)cc3)c3ccccc13)CC2
> 100 µM
Cc1nc2ccccc2n1Cc1nnc(N)o1
> 100 µM
COC(=O)C1C(OCc2ccccc2)C2CCC1(OC)C=C2C (stereo unspecified)
> 100 µM
O=C1c2ccccc2C(=O)c2c(O)ccc(O)c21
> 100 µM
CCN(CC)CCCC(C)NC(=O)c1ccc2c(c1)C(=O)c1ccccc1C2=O (stereo unspecified)
36 µM
CC(=O)OC1Oc2ccccc2-c2oc(=O)c(-c3cc4ccccc4oc3=O)cc21 (stereo unspecified)
39.2 µM
Cc1c2c(cc3c(=O)ccn(CCN(C)C)c13)c(=O)ccn2CCN(C)C
29.7 µM
Cc1cccc(C)c1NC(=O)CCc1n[nH]c(=S)o1
> 100 µM
C1=Nc2ccccc2C=Nc2ccccc2C=Nc2ccccc2C=Nc2ccccc21.[Cl-].[Pt+2]
54.1 µM
C=C(C)[C@@H]1CCC2=C[C@H](CC(C)=CC3=CC(C)=C(O3)[C@@H]1OC)OC2=O
> 100 µM
Nc1ccc(Oc2ccc(C34CC5CC6C3CC3CC4C(C5)C6(c4ccc(Oc5ccc(N)c(O)c5)cc4)C3)cc2)cc1O
0.652 µM
C#CCn1c(=O)c(Cl)cn(/C(=C/C(=O)OCC)C(=O)OCC)c1=O
12.7 µM
CCOC(=O)Cn1c(=O)c2cc(-c3ccccc3)cc3c(Cl)nc4c(OC)c(OC)cc1c4c32
> 100 µM
COC(=O)c1ccccc1C1CN=NC12Cc1cccc(C)c1C2=O (stereo unspecified)
> 100 µM
NC(=O)CC(N=C1C(=O)OC(C(O)CO)C1=NC(CC(N)=O)C(=O)O)C(=O)O (stereo unspecified)
> 100 µM
O=C(Nc1cccc(-n2cc(-c3ccncc3)c(-c3ccc(O)c(Cl)c3)n2)c1)Nc1cccc(C(F)(F)F)c1
5.18 µM
NC(=O)c1ccc2nc3c(n2c1)C(=O)C(=O)c1ccccc1-3
1.85 µM
C=C1C(=O)O[C@H]2[C@H]1CC/C(Cn1cc(-c3cc(C)c(C)cc3C)nn1)=C\CC[C@@]1(C)O[C@@H]21
2.43 µM
CCOC(=O)/C(=C\c1ccc[nH]1)C(=O)c1ccccc1
> 100 µM
COc1cc(OC)c(C(=O)/C=C/c2cccc(OC(C)=O)c2)cc1CC=C(C)C
16.2 µM
Cc1cc2nc(N3C(=O)/C(=C/c4ccc(Cl)cc4)N=C3c3ccccc3)sc2cc1C
> 100 µM
O=c1cc(N=Nc2ccc(Cl)cc2)[nH]c(=O)[nH]1
10.2 µM
OCC(O)C(O)C(O)/C=N/Nc1nc2ccccc2nc1-c1ccccc1 (stereo unspecified)
> 100 µM
C=CCCCCCCCCCOC1C=CC(OC(C)=O)C(COC(C)=O)O1 (stereo unspecified)
> 100 µM
C=CCN(c1cc(OC)c2[nH]cc(C)c2c1[N+](=O)[O-])S(C)(=O)=O
> 100 µM
C=C1C(=O)OC2CC(C)C3C=CC(=O)C3CC12 (stereo unspecified)
4.92 µM
